Exercise: for every item that follows, state its recorded Bliss excess.
# System: NCI-H196 (Small Cell Lung Carcinoma);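 further: after 72 h of two-drug dosing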
# methodDescription: Bliss excess, mean over the matrix (fraction); higher = more synergy
// return just the number, without any unit appended

State the recorded Bliss excess for this entry: COc1nnc2ccc(N3CCC(c4ccc(OCCN5CCN(C)C(=O)[C@H]5C)cc4)CC3)nn12 [AZD5153] + Cn1cnc2c(F)c(Nc3ccc(Br)cc3Cl)c(C(=O)NOCCO)cc21 [Selumetinib] (first compound max 1 µM, 7x7, partner max 10 µM)
-0.0296

State the recorded Bliss excess for this entry: Cc1c2c(nn1C)CSCc1cc(n(C)n1)CSc1cc(c3ccccc3c1)OCCCc1c(C(=O)O)n(C)c3c-2c(Cl)ccc13 [AZD5991] + CCN(CCO)CCCOc1ccc2c(Nc3cc(CC(=O)Nc4cccc(F)c4)[nH]n3)ncnc2c1 [AZD2811] (first compound max 1 µM, 7x7, partner max 1 µM)
-0.029

State the recorded Bliss excess for this entry: CN(CCO)CC[C@H](CSc1ccccc1)Nc1ccc(S(=O)(=O)NC(=O)c2ccc(N3CCC([C@@H](O)c4ccccc4-c4ccc(Cl)cc4)CC3)cc2)cc1S(=O)(=O)C(F)(F)F [AZD4320] + CCN(CCO)CCCOc1ccc2c(Nc3cc(CC(=O)Nc4cccc(F)c4)[nH]n3)ncnc2c1 [AZD2811] (first compound max 1 µM, 7x7, partner max 1 µM)
-0.0513

State the recorded Bliss excess for this entry: COc1nnc2ccc(N3CCC(c4ccc(OCCN5CCN(C)C(=O)[C@H]5C)cc4)CC3)nn12 [AZD5153] + CC1(C)CCC(CN2CCN(c3ccc(C(=O)NS(=O)(=O)c4ccc(NCC5CCOCC5)c([N+](=O)[O-])c4)c(Oc4cnc5[nH]ccc5c4)c3)CC2)=C(c2ccc(Cl)cc2)C1 [Venetoclax] (first compound max 1 µM, 7x7, partner max 1 µM)
-0.0351

State the recorded Bliss excess for this entry: CC1(C)CCC(CN2CCN(c3ccc(C(=O)NS(=O)(=O)c4ccc(NCC5CCOCC5)c([N+](=O)[O-])c4)c(Oc4cnc5[nH]ccc5c4)c3)CC2)=C(c2ccc(Cl)cc2)C1 [Venetoclax] + CCN(CCO)CCCOc1ccc2c(Nc3cc(CC(=O)Nc4cccc(F)c4)[nH]n3)ncnc2c1 [AZD2811] (first compound max 1 µM, 7x7, partner max 1 µM)
-0.0463

State the recorded Bliss excess for this entry: C[C@@H](c1ccc2nccn2c1)n1nnc2ncc(-c3cnn(C)c3)nc21 [Savolitinib] + Cc1c2c(nn1C)CSCc1cc(n(C)n1)CSc1cc(c3ccccc3c1)OCCCc1c(C(=O)O)n(C)c3c-2c(Cl)ccc13 [AZD5991] (first compound max 1 µM, 7x7, partner max 1 µM)
-0.0675
